system: Rh30-Myr-p110δ cells; assay: Akt phosphorylation in isogenic Rh30-Myr-p110 cells (Western blot); assay type: cell-based, human; conditions: Homo sapiens; serum-free 12 h, compound 1 h; band intensity; mean of three experiments; read-out: IC50 (μM) in Rh30-Myr-p110s, Akt pS473, PI3Kδ
endpoint: IC50 (µM)
API: value field is a number in µM; no unit string.

### Prompt Entry `O=C(N1CCCC1)N1CCC(n2cnc3c(-n4c(C(F)F)nc5ccccc54)nc(N4CCOCC4)nc32)CC1` has what IC50?
### Response 0.02

====

system: Rh30-Myr-p110α cells; experiment: Akt phosphorylation in isogenic Rh30-Myr-p110 cells (Western blot); type: cell-based; details: Homo sapiens; serum-free 12 h, compound 1 h; band intensity; mean of three experiments; read-out: IC50 (μM) in Rh30-Myr-p110s, Akt pS473, PI3Kα
endpoint: IC50 (µM)
API: value field is a number in µM; no unit string.

### Prompt Entry `O=C(N1CCCC1)N1CCC(n2cnc3c(-n4c(C(F)F)nc5ccccc54)nc(N4CCOCC4)nc32)CC1` has what IC50?
### Response 0.53
